# Tested on: MCF-7 breast cancer cells
# EXPERIMENT_SUMMARY: MTT cell toxicity assay in MCF-7 breast cancer cells
# Type: cell-based
# MEASUREMENT_CONDITIONS: MCF-7 cells, MTT, final 0.5% FBS, two days with compound; concentration of total growth inhibition (cytostatic)
Where a SMILES comes first, the peptide text is derived from it. The star is where a group is joined. Palmitoyl = CCCCCCCCCCCCCCCC(=O)*
OBSERVED_PROPERTY: TGI

INSERT INTO results (molecule, target_of_assay, assay_result) VALUES
  ('CCCCCCCCCCCCCCCC(=O)N[C@@H](Cc1c[nH]cn1)C(=O)N[C@@H](CCCNC(=N)N)C(=O)N[C@@H](CCCCN)C(=O)N[C@@H](CCCNC(=N)N)C(=O)N[C@@H](CC(N)=O)C(=O)N[C@@H](CC(N)=O)C(=O)N[C@@H](CO)C(=O)N[C@@H](CCCNC(=N)N)C(=O)N[C@@H](CC(C)C)C(=O)NCC(=O)N[C@@H](CC(N)=O)C(=O)NCC(=O)N[C@H](C(=O)N[C@@H](CC(C)C)C(N)=O)C(C)C [Peptide 10, Pal-HRKRNNSRLGNGVL-NH2] (Palmitoyl-HRKRNNSRLGNGVL-NH2)', 'MCF-7 breast cancer cells', '>5 µM'),
  ('CCCCCCCCCCCCCCCC(=O)N[C@@H](Cc1c[nH]cn1)C(=O)N[C@@H](CCCNC(=N)N)C(=O)N[C@@H](CCCCN)C(=O)N[C@@H](CCCNC(=N)N)C(=O)N[C@@H](CC(N)=O)C(=O)N[C@@H](CC(N)=O)C(=O)N[C@@H](CO)C(=O)N[C@@H](CCCNC(=N)N)C(=O)N[C@@H](CC(C)C)C(=O)NCC(=O)N[C@@H](CC(N)=O)C(=O)NCC(N)=O [Peptide 1, Pal-HRKRNNSRLGNG-NH2] (Palmitoyl-HRKRNNSRLGNG-NH2)', 'MCF-7 breast cancer cells', '>5 µM'),
  ('CCCCCCCCCCCCCCCC(=O)N[C@@H](CC(N)=O)C(=O)N[C@@H](CC(N)=O)C(=O)N[C@@H](CO)C(=O)N[C@@H](CCCNC(=N)N)C(=O)N[C@@H](CC(C)C)C(=O)NCC(=O)N[C@@H](CC(N)=O)C(=O)NCC(=O)N[C@H](C(=O)N[C@@H](CC(C)C)C(=O)N[C@@H](Cc1ccc(O)cc1)C(N)=O)C(C)C [Peptide 15, Pal-NNSRLGNGVLY-NH2] (Palmitoyl-NNSRLGNGVLY-NH2)', 'MCF-7 breast cancer cells', '1.5 ± 0.05 µM');

###

# Test system: MCF-7 breast cancer cells
# EXPERIMENT_SUMMARY: MTT cell toxicity assay in MCF-7 breast cancer cells
# Format: cell-based
# MEASUREMENT_CONDITIONS: MCF-7 cells, MTT, final 0.5% FBS, two days with compound; concentration of total growth inhibition (cytostatic)
Where a SMILES comes first, the peptide text is derived from it. [ ]: non-standard residue; d: D form. The star is where a group is joined. Palmitoyl = CCCCCCCCCCCCCCCC(=O)*
Each entry below lists one item and its recorded TGI value.
OBSERVED_PROPERTY: TGI (nM)

INSERT INTO results (molecule, target_of_assay, lt_gt_eq, assay_result) VALUES
  ('CCCCCCCCCCCCCCCC(=O)N[C@@H](CCCNC(=N)N)C(=O)N[C@@H](CCC(N)=O)C(=O)N1CCC[C@H]1C(=O)N[C@@H](CC(=O)O)C(=O)NCC(=O)N1CCC[C@H]1C(=O)N[C@@H](CC(C)C)C(=O)NCC(=O)N1CCC[C@H]1C(=O)N[C@@H](CC(C)C)C(=O)N[C@@H](Cc1ccc(O)cc1)C(N)=O [IR-2, Pal-RQPDGPLGPLY-NH2] (Palmitoyl-RQPDGPLGPLY-NH2)', 'MCF-7 breast cancer cells', '=', 400),
  ('CCCCCCCCCCCCCCCC(=O)N[C@@H](C(=O)N[C@H](CO)C(=O)N[C@H](C)C(=O)N[C@H](Cc1ccc(O)cc1)C(=O)N[C@H](CC(C)C)C(=O)N[C@@H](C(=O)NCC(=O)N[C@H](CC(N)=O)C(=O)NCC(=O)N[C@H](CC(C)C)C(=O)N[C@H](CCCNC(=N)N)C(=O)N[C@H](CO)C(=O)N[C@H](CC(N)=O)C(=O)N[C@H](CC(N)=O)C(=O)N[C@H](CCCNC(=N)N)C(N)=O)C(C)C)C(C)C [Peptide 21, Pal-VSAYLVGNGLRSNNR-NH2] (Palmitoyl-[dV][dS][dA][dY][dL][dV]G[dN]G[dL][dR][dS][dN][dN][dR]-NH2)', 'MCF-7 breast cancer cells', '=', 100),
  ('CCCCCCCCCCCCCCCC(=O)N[C@@H](CCCNC(=N)N)C(=O)N[C@@H](CC(N)=O)C(=O)N[C@@H](CC(N)=O)C(=O)N[C@@H](CO)C(=O)N[C@@H](CCCNC(=N)N)C(=O)N[C@@H](CC(C)C)C(=O)NCC(=O)N[C@@H](CC(N)=O)C(=O)NCC(=O)N[C@H](C(=O)N[C@@H](CC(C)C)C(=O)N[C@@H](Cc1ccc(O)cc1)C(=O)N[C@@H](C)C(=O)N[C@@H](CO)C(N)=O)C(C)C [Peptide 34, Pal-RNNSRLGNGVLYAS-NH2] (Palmitoyl-RNNSRLGNGVLYAS-NH2)', 'MCF-7 breast cancer cells', '>', 5000),
  ('CCCCCCCCCCCCCCCC(=O)N[C@@H](Cc1c[nH]cn1)C(=O)N[C@@H](CCCNC(=N)N)C(=O)N[C@@H](CCCCN)C(=O)N[C@@H](CCCNC(=N)N)C(=O)N[C@@H](CC(N)=O)C(=O)N[C@@H](CC(N)=O)C(=O)N[C@@H](CO)C(=O)N[C@@H](CCCNC(=N)N)C(=O)N[C@@H](CC(C)C)C(=O)NCC(N)=O [Peptide 2, Pal-HRKRNNSRLG-NH2] (Palmitoyl-HRKRNNSRLG-NH2)', 'MCF-7 breast cancer cells', '>', 5000),
  ('CCCCCCCCCCCCCCCC(=O)N[C@@H](CCCNC(=N)N)C(=O)N[C@@H](CC(N)=O)C(=O)N[C@@H](CC(N)=O)C(=O)N[C@@H](CO)C(=O)N[C@@H](CCCNC(=N)N)C(=O)N[C@@H](CC(C)C)C(=O)NCC(=O)N[C@@H](CC(N)=O)C(=O)NCC(=O)N[C@H](C(=O)N[C@@H](CC(C)C)C(=O)N[C@@H](Cc1ccc(O)cc1)C(N)=O)C(C)C [Peptide 16, Pal-RNNSRLGNGVLY-NH2] (Palmitoyl-RNNSRLGNGVLY-NH2)', 'MCF-7 breast cancer cells', '=', 500);
